target: D2R (Homo sapiens); experiment: cell-based; conditions: EC50, Gαi3 recruitment to D2R, nanoBRET, Gαi3
pEC50: recorded values
Hey, just a heads up that pEC50 is the negative log base 10 of the concentration in molar.

IN: Notebook entry, D2R (Homo sapiens) assay: pEC50 of NC[C@H](O)c1ccc(O)c(O)c1 [NE, norepinephrine] = ?
OUT: 4.49

IN: Notebook entry, D2R (Homo sapiens) assay: pEC50 of CC(C)C[C@H]1C(=O)N2CCC[C@H]2[C@]2(O)O[C@](NC(=O)[C@@H]3C=C4c5cccc6[nH]c(Br)c(c56)C[C@H]4N(C)C3)(C(C)C)C(=O)N12 [Bromocriptine] = ?
OUT: 7.07

---

biological target: D2R (Homo sapiens, UniProt P14416); assay: cell-based; details: pEC50, GαoB recruitment to D2R, nanoBRET, GαoB
Sequence (P14416 whole entry): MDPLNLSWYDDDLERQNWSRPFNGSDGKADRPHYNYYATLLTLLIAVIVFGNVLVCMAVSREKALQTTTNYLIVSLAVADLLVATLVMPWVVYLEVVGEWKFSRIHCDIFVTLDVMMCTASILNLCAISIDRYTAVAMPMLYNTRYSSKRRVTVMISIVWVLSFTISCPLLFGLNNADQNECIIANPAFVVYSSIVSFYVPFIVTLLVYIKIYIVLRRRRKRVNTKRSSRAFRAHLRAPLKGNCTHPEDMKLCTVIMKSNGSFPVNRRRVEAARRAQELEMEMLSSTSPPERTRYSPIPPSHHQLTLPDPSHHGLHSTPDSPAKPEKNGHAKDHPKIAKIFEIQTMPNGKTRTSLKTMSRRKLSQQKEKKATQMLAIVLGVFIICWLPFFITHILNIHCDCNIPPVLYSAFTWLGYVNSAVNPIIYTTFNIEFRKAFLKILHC
endpoint.name: EC50 (nM)
# number only, unit nM dropped from output

IN: Look up EC50: CC(C)C[C@H]1C(=O)N2CCC[C@H]2[C@]2(O)O[C@](NC(=O)[C@@H]3C=C4c5cccc6[nH]c(Br)c(c56)C[C@H]4N(C)C3)(C(C)C)C(=O)N12 [Bromocriptine]
OUT: 0.269

---

molecular target: D2R (Homo sapiens, UniProt P14416); assay: cell-based; details: EC50, Gαz recruitment to D2R, nanoBRET, Gαz
endpoint.name: EC50 (nM)
# number only, unit nM dropped from output

IN: Look up EC50: CC(C)C[C@H]1C(=O)N2CCC[C@H]2[C@]2(O)O[C@](NC(=O)[C@@H]3C=C4c5cccc6[nH]c(Br)c(c56)C[C@H]4N(C)C3)(C(C)C)C(=O)N12
OUT: 4.3

---

EC50: recorded values
target: D2R (Homo sapiens, UniProt P14416); test: cell-based; conditions: EC50, Gαi2 recruitment to D2R, nanoBRET, Gαi2
# number only, unit nM dropped from output

CC(C)C[C@H]1C(=O)N2CCC[C@H]2[C@]2(O)O[C@](NC(=O)[C@@H]3C=C4c5cccc6[nH]c(Br)c(c56)C[C@H]4N(C)C3)(C(C)C)C(=O)N12 :: 21.6

Then there is this compound:
IN: Look up EC50: NC[C@H](O)c1ccc(O)c(O)c1 [NE, norepinephrine]
OUT: 25.3

---

target: D2R (Homo sapiens, UniProt P14416)
endpoint.name: Ki (nM)
# number only, unit nM dropped from output

IN: Look up Ki: CC(C)C[C@H]1C(=O)N2CCC[C@H]2[C@]2(O)O[C@](NC(=O)[C@@H]3C=C4c5cccc6[nH]c(Br)c(c56)C[C@H]4N(C)C3)(C(C)C)C(=O)N12
OUT: 43.2

---

biological target: D2R (Homo sapiens, UniProt P14416); test: cell-based; settings: pEC50, GαoA recruitment to D2R, nanoBRET, GαoA
endpoint.name: EC50
Note to self: number, then unit, no commentary.

IN: Look up EC50: CC(C)C[C@H]1C(=O)N2CCC[C@H]2[C@]2(O)O[C@](NC(=O)[C@@H]3C=C4c5cccc6[nH]c(Br)c(c56)C[C@H]4N(C)C3)(C(C)C)C(=O)N12 [Bromocriptine]
OUT: 0.0759 nM

---

target: D2R (Homo sapiens, UniProt P14416); experiment: cell-based; conditions: EC50, GαoA recruitment to D2R, nanoBRET, GαoA
endpoint.name: pEC50
Hey, just a heads up that pEC50 is the negative log base 10 of the concentration in molar.

IN: Look up pEC50: NC[C@H](O)c1ccc(O)c(O)c1 [NE, norepinephrine]
OUT: 5.48
